Test system: B.1.617.1 pseudovirus, entry into 293T-ACE2-TMPRSS2 cells
Assay type: cell-based, SARS-CoV-2
Applied conditions: read-out: IC50, B.1.617.1 PV transduction assay
Readout: IC50

NCCCNCCS | ~1 mM
NCCS | ~1 mM

---

Target of assay: SARS-CoV-2 RBD (RBD Wuhan-1) binding to ACE2 (Severe acute respiratory syndrome coronavirus 2, UniProt P0DTC2)
Where a name gives a salt, the structure may show the parent alone.
Readout: Inhibition of binding of RBD Wuhan-1 to ACE2 (in words)

NCCS [Cysteamine] | much stronger effects
CC(C)(S)C(=O)N[C@@H](CS)C(=O)O [Bucillamine] | much stronger effects
O=S(=O)(O)CCS [Mesna, 2-mercaptoethane sulfonate, sodium salt] | much stronger effects
NCCCNCCS [WR-1065] | much stronger effects
